Biological target: Aromatase (Homo sapiens) (UniProt P11511)
Sequence (P11511 whole entry, looked up): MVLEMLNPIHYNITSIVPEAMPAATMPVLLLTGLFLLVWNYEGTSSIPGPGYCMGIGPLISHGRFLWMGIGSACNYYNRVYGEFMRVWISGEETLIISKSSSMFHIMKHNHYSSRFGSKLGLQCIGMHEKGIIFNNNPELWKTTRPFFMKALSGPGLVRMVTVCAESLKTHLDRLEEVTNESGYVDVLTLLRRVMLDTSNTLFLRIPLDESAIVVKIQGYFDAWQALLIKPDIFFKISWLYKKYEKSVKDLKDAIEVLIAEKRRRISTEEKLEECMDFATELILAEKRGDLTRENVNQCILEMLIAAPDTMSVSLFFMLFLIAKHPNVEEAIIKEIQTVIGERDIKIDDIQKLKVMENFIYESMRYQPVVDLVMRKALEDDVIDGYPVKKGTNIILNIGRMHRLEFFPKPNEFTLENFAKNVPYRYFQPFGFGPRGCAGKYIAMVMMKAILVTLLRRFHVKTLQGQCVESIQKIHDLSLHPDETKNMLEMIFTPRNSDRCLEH
Assay: qHTS assay to identify aromatase inhibitors (AID 743083); further: nearly all actives have a fitted effect of over 55% in size
Details: MCF-7 aro ERE, testosterone-driven ERE luciferase, 24 h; series mostly up to 70.3 µM
Records with an inconclusive call do not appear. Active and inactive are the calls of the source. The call rests on the fitted dose curve; in most records, active means well fitted inhibition curve with a large enough effect in the repeat runs; inconclusive means weak or mixed curves; inactive means no such curve, though single readings can be large or run the other way.
One label from this list, please: active, inactive

Example entries begin here.
CO[C@@H]1[C@@H](O[C@@H]2O[C@H](C)[C@@H](O[C@H]3C[C@@](C)(O)[C@@H](O)[C@H](C)O3)[C@H](N(C)C)[C@H]2O)[C@@H](CC=O)C[C@@H](C)[C@@H](O[C@@H]2CC[C@H](N(C)C)[C@@H](C)O2)/C=C/C=C/C[C@@H](C)OC(=O)C[C@H]1O; inactive
CC(C)(C)C1(O)CCN2CC3c4ccccc4CCc4cccc(c43)C2C1 (configuration not stated); active
O=C1C(=O)c2ncccc2-c2cccnc21; active
O=C(OCCO)c1ccccc1O; inactive

Next:
Q: For O=C(O)COc1ccc(CCNS(=O)(=O)c2ccccc2)s1 , which call appears in the assay record?
A: inactive
